- TARGET: UniProt P0DPI0
- Sequence (P0DPI0 2-448 limits assumed): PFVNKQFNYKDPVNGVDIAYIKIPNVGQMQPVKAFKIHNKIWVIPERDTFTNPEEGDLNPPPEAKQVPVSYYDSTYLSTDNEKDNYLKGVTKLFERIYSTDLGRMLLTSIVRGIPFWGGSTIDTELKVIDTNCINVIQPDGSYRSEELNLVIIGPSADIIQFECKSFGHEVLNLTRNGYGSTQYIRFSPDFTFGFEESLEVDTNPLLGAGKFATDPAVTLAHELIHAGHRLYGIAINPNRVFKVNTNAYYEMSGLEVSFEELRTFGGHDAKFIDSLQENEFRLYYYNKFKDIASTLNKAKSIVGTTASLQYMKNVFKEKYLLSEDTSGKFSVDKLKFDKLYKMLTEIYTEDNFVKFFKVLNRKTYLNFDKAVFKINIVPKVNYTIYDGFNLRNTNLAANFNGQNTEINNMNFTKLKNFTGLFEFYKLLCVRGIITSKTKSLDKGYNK
- TEST NAME: Time dependent inhibition of Clostridium botulinum BoNT/A light chain (1 to 425 residues) using SNAPtide flp6 as substrate by FRET assay
- ASSAY CONDITIONS: dose 100.0 µM, time hrs <=8
Calls of active or inactive are those of the source. The rule behind the calls is not given here.
Labels: 1 (active), 0 (inactive)

| COMPOUND | CATEGORY LABEL |
| --- | --- |
| O=C(/C=C/c1ccc(Cl)cc1Cl)NCCCN1C(=O)C=CC1=O | 1 |
| O=C(CBr)NCCCCN(O)C(=O)/C=C/c1ccc(Cl)cc1Cl | 0 |
| C=CC(=O)NCCCCN(O)C(=O)/C=C/c1ccc(Cl)cc1Cl | 0 |
| C#CCCCCN(O)C(=O)/C=C/c1ccc(Cl)cc1Cl | 0 |
| C=C(F)C(=O)NCCCN(O)C(=O)/C=C/c1ccc(Cl)cc1Cl | 0 |
| O=C(CBr)NCCN(O)C(=O)/C=C/c1ccc(Cl)cc1Cl | 0 |
| O=C(/C=C/c1ccc(Cl)cc1Cl)N(O)CCCCC1CO1 (stereo unspecified) | 0 |
| O=C(NCCCN(O)C(=O)/C=C/c1ccc(Cl)cc1Cl)C(F)Cl (stereo unspecified) | 0 |
| C=CC(=O)NCCCCCCN(O)C(=O)/C=C/c1ccc(Cl)cc1Cl | 0 |
| O=C(/C=C/C(F)F)NCCN(O)C(=O)/C=C/c1ccc(Cl)cc1Cl | 0 |
| O=C(/C=C/c1ccc(Cl)cc1Cl)N(O)CCCCCCC1CO1 (stereo unspecified) | 0 |

###

- System: HEK293
- TEST NAME: Cytotoxicity against human HEK293 cells assessed as reduction in cell viability incubated for 24 hrs by MTT assay
- Assay type: cell-based
- ASSAY CONDITIONS: Homo sapiens, HEK293, 24 h

| ITEM SMILES | TARGET | IC50 |
| --- | --- | --- |
| O=C(/C=C/c1ccc(Cl)cc1Cl)NCCCN1C(=O)C=CC1=O | HEK293 | 6 µM |

###

The following molecules are listed with their measured K values.
- TEST NAME: GSH reactivity assessed as pseudo first order rate constant at 1 mM in presence of glutathione
- Type: physicochemical
- ASSAY CONDITIONS: 1000 µM
Where a name gives a salt, the structure may show the parent alone.

| MOLECULE | K, min⁻¹ |
| --- | --- |
| O=C(/C=C/c1ccc(Cl)cc1Cl)N(O)CCCN1C(=O)C=CC1=O | 0.0023 |
| O=C(/C=C/c1ccc(Cl)cc1Cl)N(O)CCCCCC1CO1 (centres undefined) | 0.0012 |
| COC(=O)/C=C/C(=O)OC [DIMETHYL FUMARATE] | 0.0589 |
| O=C(CI)NCCCN(O)C(=O)/C=C/c1ccc(Cl)cc1Cl | 0.0611 |

###

- TEST NAME: GSH reactivity assessed as half life at 1 mM in presence of glutathione
- Assay type: physicochemical

| ITEM SMILES | half-life at 1000 µM |
| --- | --- |
| CS(=O)(=O)SCCCCCCN(O)C(=O)/C=C/c1ccc(Cl)cc1Cl | < 5 min |
